- TGT: human TLR2 (Homo sapiens)
- Construct: expressed in transfected cells; host or cells: HEK-Blue hTLR2 cells
- PROTOCOL DETAILS: Activation of human TLR2 III: HEK-Blue hTLR2 dose response (SEAP reporter)
- Type: cell-based
- CONDITION PARAMETERS: 500 pg/mL
Average optical density (650 nm) values for the molecules below.

# count of solved cases: 3
{"columns": ["MOLECULE", "TGT", "MEASURED PARAMETER", "ENDPOINT VALUE"],
 "data": [
  ["CCCCCCCCCCCCCCC(C)C(=O)OCC[C@H](CSC[C@H](N)C(=O)N[C@@H](CO)C(=O)NCCOCCOCCOCCOCCOCCOCCOCCOCCOCCOCCOCCOCCOCCOCCOCCOCCOCCOCCOCCOCCOCCOCCOCCOCCOCCOCCOCCOCCC(=O)NCC(N)=O)OC(=O)C(C)CCCCCCCCCCCCCC (stereo partly shown)", "human TLR2 (Homo sapiens)", "Average optical density (650 nm)", 2.471],
  ["CCCCCCCCCCCCCC[C@@H](C)C(=O)OCC[C@H](CSC[C@H](N)C(=O)N[C@@H](CO)C(=O)NCCOCCOCCOCCOCCOCCOCCOCCOCCOCCOCCOCCOCCOCCOCCOCCOCCOCCOCCOCCOCCOCCOCCOCCOCCOCCOCCOCCOCCC(=O)NCC(N)=O)OC(=O)[C@H](C)CCCCCCCCCCCCCC", "human TLR2 (Homo sapiens)", "Average optical density (650 nm)", 2.759],
  ["CCCCCCCCCCCCCCC(C)C(=O)OC[C@H](CSC[C@H](N)C(=O)N[C@@H](CO)C(=O)NCCOCCOCCOCCOCCOCCOCCOCCOCCOCCOCCOCCOCCOCCOCCOCCOCCOCCOCCOCCOCCOCCOCCOCCOCCOCCOCCOCCOCCC(=O)NCC(N)=O)OC(=O)C(C)CCCCCCCCCCCCCC (stereo partly shown)", "human TLR2 (Homo sapiens)", "Average optical density (650 nm)", 2.611]
]}

Record CCCCCCCCCCCCCC[C@H](C)C(=O)OCC[C@H](CSC[C@H](N)C(=O)N[C@@H](CO)C(=O)NCCOCCOCCOCCOCCOCCOCCOCCOCCOCCOCCOCCOCCOCCOCCOCCOCCOCCOCCOCCOCCOCCOCCOCCOCCOCCOCCOCCOCCC(=O)NCC(N)=O)OC(=O)[C@@H](C)CCCCCCCCCCCCCC : what is its Average optical density (650 nm) with human TLR2 (Homo sapiens)? 2.475

====

Below is a list of entries, each paired with its recorded Average optical density (650 nm) value.
- TGT: human TLR2 (Homo sapiens)
- Construct: expressed in transfected cells; host or cells: HEK-Blue hTLR2 cells
- PROTOCOL DETAILS: Activation of human TLR2 III: HEK-Blue hTLR2 dose response (SEAP reporter)
- Assay type: cell-based
- CONDITION PARAMETERS: 125 pg/mL
Lab note: jot down the number only; don't add units.

{"columns": ["COMPOUND", "TGT", "ENDPOINT VALUE"],
 "data": [
  ["CCCCCCCCCCCCCC[C@H](C)C(=O)OCC[C@H](CSC[C@H](N)C(=O)N[C@@H](CO)C(=O)NCCOCCOCCOCCOCCOCCOCCOCCOCCOCCOCCOCCOCCOCCOCCOCCOCCOCCOCCOCCOCCOCCOCCOCCOCCOCCOCCOCCOCCC(=O)NCC(N)=O)OC(=O)[C@@H](C)CCCCCCCCCCCCCC", "human TLR2 (Homo sapiens)", 2.540],
  ["CCCCCCCCCCCCCCC(C)C(=O)OCC[C@H](CSC[C@H](N)C(=O)N[C@@H](CO)C(=O)NCCOCCOCCOCCOCCOCCOCCOCCOCCOCCOCCOCCOCCOCCOCCOCCOCCOCCOCCOCCOCCOCCOCCOCCOCCOCCOCCOCCOCCC(=O)NCC(N)=O)OC(=O)C(C)CCCCCCCCCCCCCC (stereo partly shown)", "human TLR2 (Homo sapiens)", 2.568],
  ["CCCCCCCCCCCCCC[C@@H](C)C(=O)OCC[C@H](CSC[C@H](N)C(=O)N[C@@H](CO)C(=O)NCCOCCOCCOCCOCCOCCOCCOCCOCCOCCOCCOCCOCCOCCOCCOCCOCCOCCOCCOCCOCCOCCOCCOCCOCCOCCOCCOCCOCCC(=O)NCC(N)=O)OC(=O)[C@H](C)CCCCCCCCCCCCCC", "human TLR2 (Homo sapiens)", 2.814]
]}

Shift focus to the following entry.
Recorded Average optical density (650 nm) of CCCCCCCCCCCCCCC(C)C(=O)OC[C@H](CSC[C@H](N)C(=O)N[C@@H](CO)C(=O)NCCOCCOCCOCCOCCOCCOCCOCCOCCOCCOCCOCCOCCOCCOCCOCCOCCOCCOCCOCCOCCOCCOCCOCCOCCOCCOCCOCCOCCC(=O)NCC(N)=O)OC(=O)C(C)CCCCCCCCCCCCCC (stereo partly shown) , please. 2.521

====

Below, each of the molecules is paired with its reported Average optical density (650 nm) value.
- TGT: human TLR2 (Homo sapiens, UniProt O60603)
- Construct: expressed in transfected cells; host or cells: HEK-Blue hTLR2 cells
- Sequence (O60603 21-784): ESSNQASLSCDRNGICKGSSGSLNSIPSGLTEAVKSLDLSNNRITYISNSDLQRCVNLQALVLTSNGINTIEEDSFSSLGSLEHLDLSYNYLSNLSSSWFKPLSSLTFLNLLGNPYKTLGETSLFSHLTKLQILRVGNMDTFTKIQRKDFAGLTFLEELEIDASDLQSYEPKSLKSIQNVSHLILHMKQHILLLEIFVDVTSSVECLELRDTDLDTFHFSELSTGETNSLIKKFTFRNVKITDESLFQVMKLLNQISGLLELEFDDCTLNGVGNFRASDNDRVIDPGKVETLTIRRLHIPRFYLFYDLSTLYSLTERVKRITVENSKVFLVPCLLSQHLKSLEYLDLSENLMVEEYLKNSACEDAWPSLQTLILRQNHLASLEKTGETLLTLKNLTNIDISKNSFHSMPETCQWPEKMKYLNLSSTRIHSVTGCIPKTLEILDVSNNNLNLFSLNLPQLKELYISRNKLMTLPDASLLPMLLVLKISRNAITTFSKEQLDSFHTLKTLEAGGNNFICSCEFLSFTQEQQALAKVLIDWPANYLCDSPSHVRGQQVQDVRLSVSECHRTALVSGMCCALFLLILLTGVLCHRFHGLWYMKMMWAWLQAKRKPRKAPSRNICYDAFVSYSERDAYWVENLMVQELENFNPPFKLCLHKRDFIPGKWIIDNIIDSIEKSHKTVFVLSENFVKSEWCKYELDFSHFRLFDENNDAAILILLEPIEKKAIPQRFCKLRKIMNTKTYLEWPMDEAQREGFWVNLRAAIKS
- Sequence (Q9Y2C9 32-796 partner): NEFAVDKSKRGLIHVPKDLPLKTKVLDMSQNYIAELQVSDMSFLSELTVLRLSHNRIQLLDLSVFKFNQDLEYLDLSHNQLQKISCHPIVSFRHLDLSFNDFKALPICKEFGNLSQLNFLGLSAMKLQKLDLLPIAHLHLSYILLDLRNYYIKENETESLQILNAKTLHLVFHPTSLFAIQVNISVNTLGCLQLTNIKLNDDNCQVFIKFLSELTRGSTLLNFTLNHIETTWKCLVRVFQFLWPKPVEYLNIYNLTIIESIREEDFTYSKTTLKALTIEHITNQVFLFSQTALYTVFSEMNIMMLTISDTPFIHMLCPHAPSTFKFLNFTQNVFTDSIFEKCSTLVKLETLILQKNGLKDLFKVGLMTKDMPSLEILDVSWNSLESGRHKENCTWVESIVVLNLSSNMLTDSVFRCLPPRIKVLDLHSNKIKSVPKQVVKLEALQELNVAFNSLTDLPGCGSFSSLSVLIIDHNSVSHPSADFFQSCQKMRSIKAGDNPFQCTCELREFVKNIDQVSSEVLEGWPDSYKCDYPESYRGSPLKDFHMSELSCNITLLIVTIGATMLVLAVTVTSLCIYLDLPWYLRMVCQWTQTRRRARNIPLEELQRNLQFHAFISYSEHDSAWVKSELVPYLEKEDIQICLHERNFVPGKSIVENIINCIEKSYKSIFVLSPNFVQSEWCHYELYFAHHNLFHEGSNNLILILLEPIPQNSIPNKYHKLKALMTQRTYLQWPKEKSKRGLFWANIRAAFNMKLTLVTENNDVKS
- PROTOCOL DETAILS: Activation of human TLR2 III: HEK-Blue hTLR2 dose response (SEAP reporter)
- Assay type: cell-based
- CONDITION PARAMETERS: 0.49 pg/mL
// return just the number, without any unit appended

{"columns": ["MOLECULE", "ENDPOINT VALUE"],
 "data": [
  ["CCCCCCCCCCCCCC[C@H](C)C(=O)OCC[C@H](CSC[C@H](N)C(=O)N[C@@H](CO)C(=O)NCCOCCOCCOCCOCCOCCOCCOCCOCCOCCOCCOCCOCCOCCOCCOCCOCCOCCOCCOCCOCCOCCOCCOCCOCCOCCOCCOCCOCCC(=O)NCC(N)=O)OC(=O)[C@@H](C)CCCCCCCCCCCCCC", 1.099]
]}

Kindly state the measured Average optical density (650 nm) obtained for CCCCCCCCCCCCCCC(C)C(=O)OCC[C@H](CSC[C@H](N)C(=O)N[C@@H](CO)C(=O)NCCOCCOCCOCCOCCOCCOCCOCCOCCOCCOCCOCCOCCOCCOCCOCCOCCOCCOCCOCCOCCOCCOCCOCCOCCOCCOCCOCCOCCC(=O)NCC(N)=O)OC(=O)C(C)CCCCCCCCCCCCCC (stereo partly shown) with human TLR2 (Homo sapiens, UniProt O60603). 1.860

Now the same for CCCCCCCCCCCCCCC(C)C(=O)OC[C@H](CSC[C@H](N)C(=O)N[C@@H](CO)C(=O)NCCOCCOCCOCCOCCOCCOCCOCCOCCOCCOCCOCCOCCOCCOCCOCCOCCOCCOCCOCCOCCOCCOCCOCCOCCOCCOCCOCCOCCC(=O)NCC(N)=O)OC(=O)C(C)CCCCCCCCCCCCCC (stereo partly shown) 1.479

And the next one, CCCCCCCCCCCCCC[C@@H](C)C(=O)OCC[C@H](CSC[C@H](N)C(=O)N[C@@H](CO)C(=O)NCCOCCOCCOCCOCCOCCOCCOCCOCCOCCOCCOCCOCCOCCOCCOCCOCCOCCOCCOCCOCCOCCOCCOCCOCCOCCOCCOCCOCCC(=O)NCC(N)=O)OC(=O)[C@H](C)CCCCCCCCCCCCCC ? 1.342

====

- TGT: human TLR2 (Homo sapiens)
- Construct: expressed in transfected cells; host or cells: HEK-Blue hTLR2 cells
- PROTOCOL DETAILS: Activation of human TLR2 III: HEK-Blue hTLR2 dose response (SEAP reporter)
- Type: cell-based
- CONDITION PARAMETERS: 31.25 pg/mL
MEASURED PARAMETER: Average optical density (650 nm)
Note: the reply should be a number with no unit written.

Use the examples below as a reference point.
{"columns": ["COMPOUND", "ENDPOINT VALUE"],
 "data": [
  ["CCCCCCCCCCCCCCC(C)C(=O)OCC[C@H](CSC[C@H](N)C(=O)N[C@@H](CO)C(=O)NCCOCCOCCOCCOCCOCCOCCOCCOCCOCCOCCOCCOCCOCCOCCOCCOCCOCCOCCOCCOCCOCCOCCOCCOCCOCCOCCOCCOCCC(=O)NCC(N)=O)OC(=O)C(C)CCCCCCCCCCCCCC (stereo partly shown)", 2.457],
  ["CCCCCCCCCCCCCC[C@@H](C)C(=O)OCC[C@H](CSC[C@H](N)C(=O)N[C@@H](CO)C(=O)NCCOCCOCCOCCOCCOCCOCCOCCOCCOCCOCCOCCOCCOCCOCCOCCOCCOCCOCCOCCOCCOCCOCCOCCOCCOCCOCCOCCOCCC(=O)NCC(N)=O)OC(=O)[C@H](C)CCCCCCCCCCCCCC", 2.744],
  ["CCCCCCCCCCCCCCC(C)C(=O)OC[C@H](CSC[C@H](N)C(=O)N[C@@H](CO)C(=O)NCCOCCOCCOCCOCCOCCOCCOCCOCCOCCOCCOCCOCCOCCOCCOCCOCCOCCOCCOCCOCCOCCOCCOCCOCCOCCOCCOCCOCCC(=O)NCC(N)=O)OC(=O)C(C)CCCCCCCCCCCCCC (stereo partly shown)", 2.481]
]}

// moving on: another record for Average optical density (650 nm)
Reported Average optical density (650 nm) for CCCCCCCCCCCCCC[C@H](C)C(=O)OCC[C@H](CSC[C@H](N)C(=O)N[C@@H](CO)C(=O)NCCOCCOCCOCCOCCOCCOCCOCCOCCOCCOCCOCCOCCOCCOCCOCCOCCOCCOCCOCCOCCOCCOCCOCCOCCOCCOCCOCCOCCC(=O)NCC(N)=O)OC(=O)[C@@H](C)CCCCCCCCCCCCCC : what is it? 2.252
